Reference source for all entries: ChEMBL document CHEMBL1201862

subject of test: Cysteine protease ATG4B (Homo sapiens)
Sequence (Q9Y4P1 whole entry): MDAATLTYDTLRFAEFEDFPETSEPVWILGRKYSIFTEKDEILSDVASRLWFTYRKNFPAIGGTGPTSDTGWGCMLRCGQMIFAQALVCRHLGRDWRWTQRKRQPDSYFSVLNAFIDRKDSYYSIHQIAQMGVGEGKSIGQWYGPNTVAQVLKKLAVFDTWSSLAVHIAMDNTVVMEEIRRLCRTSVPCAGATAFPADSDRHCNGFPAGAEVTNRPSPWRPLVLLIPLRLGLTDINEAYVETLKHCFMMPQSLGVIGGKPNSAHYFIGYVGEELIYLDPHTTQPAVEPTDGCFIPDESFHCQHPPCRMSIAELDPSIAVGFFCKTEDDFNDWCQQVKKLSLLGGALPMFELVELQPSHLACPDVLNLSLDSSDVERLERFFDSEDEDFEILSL
Type: functional
Active and inactive are the calls of the source.
recorded metric: IC50

| smiles structure | observed |
| --- | --- |
| CCCCCCCCCCCCCCCC[N+](C)(C)CCl | 8.42 µM (active) |
| Cc1ccccc1NC1=C/C(=N\S(=O)(=O)c2ccc(C(=O)O)cc2)c2ccccc2C1=O | 5.85 µM (active) |
| O=C(Nc1cccc(Cl)c1N1CCCC1)c1cccc(-c2cc3ccccc3oc2=O)c1 | 0.87 µM (active) |

Q: Read the entry O=S(=O)(Nc1nc2ccccc2nc1N1CCc2ccccc2C1)c1ccc(Cl)cc1 and write its reported IC50.
Result: 9.18 µM (active)
